Data origin, for the record: PubChem BioAssay AID833

measured on: Galanin receptor type 2 (Rattus norvegicus) (UniProt O08726)
Sequence (O08726 whole entry, looked up): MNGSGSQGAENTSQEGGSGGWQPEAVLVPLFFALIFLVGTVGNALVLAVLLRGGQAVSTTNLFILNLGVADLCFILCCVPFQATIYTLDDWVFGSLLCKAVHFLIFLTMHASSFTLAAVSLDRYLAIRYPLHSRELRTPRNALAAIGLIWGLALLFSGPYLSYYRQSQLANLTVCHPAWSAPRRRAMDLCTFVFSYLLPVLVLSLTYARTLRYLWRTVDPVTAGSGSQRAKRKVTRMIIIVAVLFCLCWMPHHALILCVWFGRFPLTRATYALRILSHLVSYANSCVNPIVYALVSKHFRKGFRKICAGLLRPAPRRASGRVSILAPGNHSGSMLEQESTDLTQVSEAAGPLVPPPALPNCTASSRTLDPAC
assay info: activates the rat galanin receptor 2 (AID 833)
measurement parameters: cell-based GALR2 agonist screen; at 10 µM; hits give high values
About 80 (0.5%) of roughly 16,000 compounds were called active. Only a selection was taken, and actives are over-represented in it overall.
observable: activation

Documented activation of COC(=O)c1c(C(=O)OC)c2n(c1C)CCS2 : -6.88% (inactive)

Value of activation reported for the compound Cc1onc(-c2ccccc2)c1CNS(=O)(=O)c1ccc(-c2ccccn2)s1 is -9.42% (inactive)

// O=S(=O)(O)c1ncccn1 : activation value = -6.4% (inactive)

The reported value for O=C(O)c1cc(=O)[nH]c2c(Cl)cc(Cl)cc12 in terms of activation is -3.92% (inactive)

According to the records, this compound O=C(NCc1csc(-c2cccs2)n1)Nc1ccccc1-c1ccccc1 displays activation of -9.54% (inactive)

Reported activation of N#C/C(=C\c1cccs1)C(=O)NCCc1c[nH]c2ccccc12 : -5.34% (inactive)

* * *

measured on: Galanin receptor type 2 (Rattus norvegicus) (UniProt O08726)
assay info: activates the rat galanin receptor 2 (AID 833)
measurement parameters: cell-based GALR2 agonist screen; at 10 µM; hits give high values
About 80 (0.5%) of roughly 16,000 compounds were called active. Many of the other results were omitted from the sample, so actives are more common in it than they were.
Please provide measured activation for the entries that follow.
Note: unit % is implicit; provide only the numeric part.

Entry Cc1[nH]c2ccccc2c1Sc1ccc(Cl)cc1 — recorded activation = -8.87

So for O=C(Nc1ccc(OC(F)F)cc1)Nc1coc(-c2ccccc2)c1 , the logged activation turned out to be -4.63

Entry CS(=O)(=O)Nc1ccc(/C(N)=N/OC(=O)c2cccs2)cc1 , activation reported as -5.51

Noted for Cc1oc(C(C)(C)C)cc1C(=O)NC1Cc2ccccc2C1 : its activation reads -2.8

Reported activation ( COc1ccc(C(=O)NNC(=O)c2c(OC)cc(C(F)(F)F)cc2C(F)(F)F)cc1 ) = -1.51

Entry COC(=O)c1cc(OC)c(OC)cc1NC(=O)c1ccccc1C(=O)O , activation reported as 0.04

Documented activation of COC(=O)c1sc(S(C)=O)c(-c2ccon2)c1C (configuration not stated) : -6.07

What the record says about O=S(=O)(O)Oc1c[nH]c2ccccc12 : activation is -7.29

activation for CSc1n[nH]c(=O)n1-c1cccc(C(F)(F)F)c1 is -7.62

Per the records, this compound ( CN(NS(=O)(=O)c1ccc(C(F)(F)F)cc1)c1cnn(C)c(=O)c1Cl ) has activation equal to -5.39

Lookup result for Cc1ccc(SCC(=O)Nc2ccc(F)cc2F)cc1 ; measured activation: -5.06

Entry CCOC(=O)c1c(NC(=S)NC)sc2c1CCCC2 ; activation = -0.11

* * *

measured on: Galanin receptor type 2 (Rattus norvegicus) (UniProt O08726)
assay info: activates the rat galanin receptor 2 (AID 833)
measurement parameters: cell-based GALR2 agonist screen; at 10 µM; hits give high values
Hit rate of the full screen: of about 16,000 compounds, about 80 (0.5%) were called active. The entries come from a sample that favours actives as a whole.
observable: activation (%)
Could you give me the number in %? Just the number is fine.

Recorded activation (compound COC(=O)c1ccc2snnc2c1 ): -2.44

Per the record, O=c1[nH]c2c(=O)[nH]c(=S)[nH]c2nc1/C=C(\O)c1ccccc1 has activation of -5.76

Entry under test: O=C1NCCN1CCNS(=O)(=O)c1cc(Cl)sc1Cl . Its activation was -5.62

Measured activation of Fc1cccc(Cl)c1CSc1nccn1-c1cccnc1 : -3.88

Recorded activation (compound O=C(NC(=O)c1ccno1)Nc1ccccc1Cl ): -3.51

Consider Cc1ccc(Sc2cc(C)c(C)cc2N)c(C)c1 . Its measured activation is -6.96

get_value(item= COC(=O)c1sccc1NC(=S)Nc1ccc(C)cc1 , readout=activation) returns -4.74

Input CN1CCN(c2ccc(NC(=O)c3ccccc3)cc2)CC1 . Output activation: -7.3

Field activation (entry Cn1cc(Br)c(-c2ccc(NC(=O)Nc3ccc(Cl)cc3)cc2)n1 ) reads -8.08

The compound O=c1[nH]c2ccccc2s1 showed activation equal to -3.62

For reference, reported activation for CCOC(=O)NC(=S)NC12CC3CC(CC(C3)C1)C2 stands at -2.11

Looking up Cc1cc(S(=O)(=O)Oc2ccc(OCc3ccccc3)cc2)c(C)cc1Cl , I see its activation listed as -2.88

The recorded activation for entry Cc1c(S(=O)(=O)N2CCOCC2)ccc(Cl)c1F equals -9.66

// activation value for Cc1onc(-c2ccccc2Cl)c1NC(=O)N1c2ccc(F)cc2CCC1C (stereo unspecified) : -4.64

Notebook: O=c1oc2c3ccccc3c3oc(=O)sc3c2s1 , activation read as 16.7

Notebook: Cc1nn2c(=O)c3c4c(sc3nc2[nH]c1=O)CCCC4 , activation read as 0.66

compound CCOC(=O)Cc1nnc(-c2ccc(Cl)cc2)o1 , activation observed: -7.97

Consider CCOC(=O)C(=CNc1nc(-c2ccc(Cl)cc2)cs1)C(=O)OCC . Its measured activation is -6.21

The reported activation of the compound N/C(CC(=O)Nc1ccc(F)c(Cl)c1)=N\O was -6.66

Kindly note the recorded activation for Cc1ccc(N(C)NC(=O)Nc2ccc(Cl)cc2)nn1 , which is -6.34

activation in this record for c1ccc2c(-c3csc(-c4ccc5c(c4)OCCO5)n3)csc2c1 : -9.38

Note to self: activation recorded for Cc1cc(S(=O)(=O)O/N=C(\N)c2snnc2C)cc(C)c1F was -5.04

# compound COc1ccc(OC)c(CNC(=O)Cc2cccs2)c1 ; its activation = -4.76

Consider CNC(=S)Nc1cscc1S(=O)(=O)c1ccc(Cl)cc1 . Its measured activation is -6.95

For record Cc1cc(C2=CSC3=NCCN23)ccc1Cl the listed activation is -7.84

// activation value for CNC(=S)NNC(=O)c1cc(C)on1 : -5.05
